# target-under-test: human TdT (Homo sapiens, UniProt P04053)
# Construct: purchased Trevigen (Gaithersburg, MD)
# Sequence (P04053 whole entry): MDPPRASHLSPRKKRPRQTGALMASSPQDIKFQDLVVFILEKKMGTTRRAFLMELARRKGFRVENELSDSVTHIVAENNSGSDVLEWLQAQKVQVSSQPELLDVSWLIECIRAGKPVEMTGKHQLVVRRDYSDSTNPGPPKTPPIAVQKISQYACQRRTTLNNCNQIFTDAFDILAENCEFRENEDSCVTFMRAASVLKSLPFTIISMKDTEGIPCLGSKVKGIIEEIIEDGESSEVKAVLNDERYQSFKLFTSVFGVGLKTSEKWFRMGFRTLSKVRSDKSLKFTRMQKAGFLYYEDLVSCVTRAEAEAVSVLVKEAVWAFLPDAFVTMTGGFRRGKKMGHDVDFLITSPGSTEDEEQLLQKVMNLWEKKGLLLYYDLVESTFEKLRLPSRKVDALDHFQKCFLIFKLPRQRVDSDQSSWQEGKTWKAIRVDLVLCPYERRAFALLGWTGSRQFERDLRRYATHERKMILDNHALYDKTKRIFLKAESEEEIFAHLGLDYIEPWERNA
# experimental-details: Terminal transferase assay, TdT
# Format: biochemical
# setup-conditions: human TdT, Mg2+ as cofactor; read-out: ID50 (µM) Mg2+
So I've got a bunch of molecules here, and I need their IC50 values.
// return the numeric value with its unit appended

Would you please look over these solved cases?
smiles-str: CCOC(=O)/C(O)=C/C(=O)/C=C/c1c[nH]cc1-c1ccccc1
IC50: 10.5 µM

smiles-str: COc1cc(-c2c[nH]cc2/C=C/C(=O)/C=C(\O)C(=O)O)cc(OC)c1OC
IC50: 0.24 µM

We now examine a further molecule.
Task: Quick one: give measured IC50 for CCOC(=O)/C(O)=C/C(=O)/C=C/c1cc(C(=O)c2cc(OC)c(OC)c(OC)c2)c[nH]1
Result: 10.6 µM
